Test system: 885512-296-R-J2-PDC complex spheroid growth, % test/control;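 also: spheroids exposed to compounds for seven days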
Experiment: Anticancer human tumor 885512-296-R-J2-PDC patient-derived breast carcinoma cell line growth inhibition [AhR]
Details: second compound 1 µM; first compound 10 µM; stronger effect = lower value
measured-metric: viability, T/C (%)
# value in %; strip the unit string

Answered examples (4):
NS(=O)(=O)OCC1CC(n2ccc3c(NC4CCc5ccccc54)ncnc32)CC1O (centres undefined) + CC(CO)NC(=O)c1cc(-c2ccc(Cl)cc2)nn(-c2cnn(C)c2)c1=O
7.68
COc1cc(Nc2ncc3c(n2)-c2ccc(Cl)cc2C(c2c(F)cccc2OC)=NC3)ccc1C(=O)O + CC(CO)NC(=O)c1cc(-c2ccc(Cl)cc2)nn(-c2cnn(C)c2)c1=O
50.2
O=C(C=Cc1cccc(S(=O)(=O)Nc2ccccc2)c1)NO + Cc1ccccc1N=Nc1ccc(NC(=O)c2ccnn2C)c(C)c1
7.53
COc1cc(C2c3cc4c(cc3C(OC3OC5COC(C)OC5C(O)C3O)C3COC(=O)C23)OCO4)cc(OC)c1O (centres undefined) + Cc1cncc(-c2nc(NCCc3c[nH]c4ccccc34)c3ncn(C(C)C)c3n2)c1
8.42

(Q) Look up and state reported viability, T/C for CC(C)c1c(-c2ccccc2)nc2c(C#N)c[nH]n2c1=O + CC(CO)NC(=O)c1cc(-c2ccc(Cl)cc2)nn(-c2cnn(C)c2)c1=O
(A) 89.2

(Q) Look up and state reported viability, T/C for Nc1ccccc1NC(=O)c1ccc(CNC(=O)OCc2cccnc2)cc1 + Cc1ccccc1N=Nc1ccc(NC(=O)c2ccnn2C)c(C)c1
(A) 11.2

(Q) Look up and state reported viability, T/C for Nc1ccn(C2OC(CO)C(O)C2(F)F)c(=O)n1 (centres undefined) + Cc1ccccc1N=Nc1ccc(NC(=O)c2ccnn2C)c(C)c1
(A) 6.93

(Q) Look up and state reported viability, T/C for O=C(C=Cc1cccc(S(=O)(=O)Nc2ccccc2)c1)NO + CC(CO)NC(=O)c1cc(-c2ccc(Cl)cc2)nn(-c2cnn(C)c2)c1=O
(A) 9.28

(Q) Look up and state reported viability, T/C for COc1cc(Nc2ncc3c(n2)-c2ccc(Cl)cc2C(c2c(F)cccc2OC)=NC3)ccc1C(=O)O + Cc1cncc(-c2nc(NCCc3c[nH]c4ccccc34)c3ncn(C(C)C)c3n2)c1
(A) 39.5

(Q) Look up and state reported viability, T/C for COc1cccc2c1C(=O)c1c(O)c3c(c(O)c1C2=O)CC(O)(C(=O)CO)CC3OC1CC(N)C(O)C(C)O1 (centres undefined) + Cc1ccccc1N=Nc1ccc(NC(=O)c2ccnn2C)c(C)c1
(A) 1.27

(Q) Look up and state reported viability, T/C for CC(C)c1c(-c2ccccc2)nc2c(C#N)c[nH]n2c1=O + Cc1ccccc1N=Nc1ccc(NC(=O)c2ccnn2C)c(C)c1
(A) 96.4

(Q) Look up and state reported viability, T/C for CC1COCCN1c1cc(C2(S(C)(=N)=O)CC2)nc(-c2ccnc3[nH]ccc23)n1 (centres undefined) + Cc1cncc(-c2nc(NCCc3c[nH]c4ccccc34)c3ncn(C(C)C)c3n2)c1
(A) 4.77

(Q) Look up and state reported viability, T/C for Nc1ccn(C2OC(CO)C(O)C2(F)F)c(=O)n1 (centres undefined) + Cc1cncc(-c2nc(NCCc3c[nH]c4ccccc34)c3ncn(C(C)C)c3n2)c1
(A) 3.99

(Q) Look up and state reported viability, T/C for CC1(C)CCC(CN2CCN(c3ccc(C(=O)NS(=O)(=O)c4ccc(NCC5CCOCC5)c([N+](=O)[O-])c4)c(Oc4cnc5[nH]ccc5c4)c3)CC2)=C(c2ccc(Cl)cc2)C1 + CC(CO)NC(=O)c1cc(-c2ccc(Cl)cc2)nn(-c2cnn(C)c2)c1=O
(A) 41

Each recorded value in this set is attributed to PubChem BioAssay AID1919006.
